The measured values listed here are drawn from ChEMBL document CHEMBL1144813.

# TARGET: Cystic fibrosis transmembrane conductance regulator (Homo sapiens, UniProt P13569, F508DEL)
# Sequence (P13569 as listed by the source): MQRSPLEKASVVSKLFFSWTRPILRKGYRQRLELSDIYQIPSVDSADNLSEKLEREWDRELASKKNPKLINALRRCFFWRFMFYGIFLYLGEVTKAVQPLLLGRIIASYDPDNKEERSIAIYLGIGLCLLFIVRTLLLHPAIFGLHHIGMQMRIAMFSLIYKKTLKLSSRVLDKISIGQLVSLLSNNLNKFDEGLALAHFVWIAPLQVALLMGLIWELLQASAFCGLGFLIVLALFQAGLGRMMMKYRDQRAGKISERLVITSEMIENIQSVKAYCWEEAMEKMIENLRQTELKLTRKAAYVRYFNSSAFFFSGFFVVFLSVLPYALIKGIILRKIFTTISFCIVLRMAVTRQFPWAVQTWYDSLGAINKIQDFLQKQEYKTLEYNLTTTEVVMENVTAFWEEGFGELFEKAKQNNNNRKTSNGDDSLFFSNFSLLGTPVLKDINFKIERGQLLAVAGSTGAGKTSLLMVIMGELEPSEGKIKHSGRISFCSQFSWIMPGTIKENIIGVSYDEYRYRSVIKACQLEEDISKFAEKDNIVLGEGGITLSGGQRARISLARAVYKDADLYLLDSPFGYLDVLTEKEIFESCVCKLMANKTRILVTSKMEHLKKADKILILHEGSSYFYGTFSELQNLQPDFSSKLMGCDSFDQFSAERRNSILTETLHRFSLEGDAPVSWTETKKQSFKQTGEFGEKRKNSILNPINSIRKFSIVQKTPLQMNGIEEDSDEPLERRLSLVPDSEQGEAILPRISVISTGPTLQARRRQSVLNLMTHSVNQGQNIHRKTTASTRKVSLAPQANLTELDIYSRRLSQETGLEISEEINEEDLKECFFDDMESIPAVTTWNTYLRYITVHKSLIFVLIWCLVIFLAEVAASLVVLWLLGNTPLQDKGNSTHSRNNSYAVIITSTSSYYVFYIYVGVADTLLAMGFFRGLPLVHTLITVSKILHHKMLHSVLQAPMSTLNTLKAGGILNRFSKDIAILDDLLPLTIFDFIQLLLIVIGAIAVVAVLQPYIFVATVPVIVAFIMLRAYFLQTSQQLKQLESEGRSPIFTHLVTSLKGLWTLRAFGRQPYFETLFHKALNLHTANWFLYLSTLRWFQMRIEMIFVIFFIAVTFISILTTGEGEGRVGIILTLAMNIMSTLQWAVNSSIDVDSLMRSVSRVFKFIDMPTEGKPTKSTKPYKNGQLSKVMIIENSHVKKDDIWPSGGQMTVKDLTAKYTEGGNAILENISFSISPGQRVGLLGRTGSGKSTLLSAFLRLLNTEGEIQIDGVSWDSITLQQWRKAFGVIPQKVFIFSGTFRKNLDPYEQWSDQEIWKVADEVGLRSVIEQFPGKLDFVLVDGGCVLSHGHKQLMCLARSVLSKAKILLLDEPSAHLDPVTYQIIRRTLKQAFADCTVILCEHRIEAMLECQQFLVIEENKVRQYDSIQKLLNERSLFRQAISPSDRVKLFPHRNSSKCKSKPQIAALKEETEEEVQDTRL
# PROTOCOL_TEXT: Corrector activity at human CFTR deltaF508 mutant expressed in FRT cells assessed as iodide influx
# COND: read-out: Kd
# Lookup of reported EC50 keyed by entry
Please give a number only; it is taken to be in nM.

Input: Need EC50, item Cc1nc(NC(=O)c2ccc(Cl)cc2)sc1-c1csc(Nc2ccc(Cl)cc2)n1
Output: 1100

Input: // repeat for CCCCCCC(=O)Nc1nc(C)c(-c2csc(Nc3cc(OC)ccc3OC)n2)s1 and report
Output: 1100

Input: Further, for CCOc1ccccc1Nc1nc(-c2sc(NC(=O)C(C)(C)C)nc2C)cs1 ?
Output: 800

Input: Repeat for the following compound: COc1ccc(OC)c(Nc2nc(-c3sc(NC(=O)c4ccc(Cl)cc4)nc3C)cs2)c1
Output: 1100

Input: // repeat for COc1ccc(Cl)cc1Nc1nc(-c2sc(NC(=O)c3ccccc3)nc2C)cs1 and report
Output: 900

New cases:
Input: Returns the measured EC50 for the input compound. Input: Cc1nc(NC(=O)c2ccc([N+](=O)[O-])cc2)sc1-c1csc(Nc2ccc(Cl)cc2)n1
Output: 800

Input: And then COc1ccc(Cl)cc1Nc1nc(-c2sc(NC(=O)C(C)(C)C)nc2C)cs1 , what is it?
Output: 700

Input: Next entry: Cc1ccc(Nc2nc(-c3sc(NC(=O)c4ccc(Cl)cc4)nc3C)cs2)cc1
Output: 1100
